Biological target: T1, human tau (hT40) with P301S and G335D of Line 66 mice (human, UniProt P10636 1-758)
T1 construct: transgene product in brain homogenate or plasma; also called L66 human tau
T1 sequence (P10636 other isoform, or with tags, fused parts or gaps P301S G335D P301S G335D limits assumed): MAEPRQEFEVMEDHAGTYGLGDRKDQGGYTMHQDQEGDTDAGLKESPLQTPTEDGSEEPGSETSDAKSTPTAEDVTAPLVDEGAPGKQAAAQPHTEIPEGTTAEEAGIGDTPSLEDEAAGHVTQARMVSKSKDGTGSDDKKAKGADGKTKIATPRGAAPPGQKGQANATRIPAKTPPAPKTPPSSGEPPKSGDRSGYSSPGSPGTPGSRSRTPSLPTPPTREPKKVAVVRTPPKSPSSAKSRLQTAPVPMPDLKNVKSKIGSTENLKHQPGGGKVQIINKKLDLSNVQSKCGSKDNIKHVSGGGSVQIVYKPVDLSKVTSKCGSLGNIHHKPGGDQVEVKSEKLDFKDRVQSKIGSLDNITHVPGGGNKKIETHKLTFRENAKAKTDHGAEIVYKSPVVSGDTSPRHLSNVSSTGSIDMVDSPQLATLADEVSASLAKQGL
Assay: Western blot

BINDER	binding result
CC7 mAb (antibody, mouse IgG2a, V domains shown, sheep-mouse IgG2a chimeric mAb; also called CC7 antibody) VH: QVQLQESGPSLVKPSQTLSLTCTVSGFSLTSNAVIWVRQAPGKAPEWVALIDVDGDAAYDPALKSRLSITRDTSKSQVSLSLRSVTTEDTAVYYCARDYGSWGYVSDIDYWGPGLLVTVSS VL: RVVRTQPSSVSGSLGQRVSITCSGSYITGSSVGWFQQVPGSGLKTVIYDNNDRPSGVPDRFSGSKSGDTATLTISSLQAEDEADYYCASYDTSNIGLFGSGTRLTVLG	binds
S1D12 mAb (antibody, mouse IgG2a, V domains shown, sheep-mouse IgG2a chimeric mAb; also called S1D12 antibody; SD12) VH: QVQLQESGPSLVKPSQTLSLTCTVSGFSLNNNAVGWVRQAPGKVPESLVGCSSDGTCYYNSALKSRLDITRDTSKNQISLSLSSVTTDDAAVYYCTRGHYSIYGYDYLGTIDYWGPGLLVTVSS VL: QAVLTQPSSVSGSLGQRVSITCSGSSSNVGGGNSVGWYQHLPGSGLKTIIYDTNSRPSGVPDRFSGSRSGNTATLTINSLQAEDEGDYYCVTGDSTTHDDLVGSGTRLTVLG	binds
S1G2 mAb (antibody, mouse IgG2a, V domains shown, sheep-mouse IgG2a chimeric mAb; also called S1G2 antibody) VH: QVQLQESGPSLVKPSQTLSLTCTVSGFSLTSNSVGWVRQAPGKAPEWVAGIDTDGEEGYNPALNSRLSITRDTSKSQVSLSLSSVTSEDTAVYYCGRSYRADGLAYGYVQAIDYWGPGLLVTVSS VL: QAVVTQPSSVSGSLGQRVSITCSGSFIGISSVGWFQQLPGSGLRTIIVASDGRPSGVPDRFSMSKSGNTATLTISSLQAEDEADYFCGSSDRTPYTGVFGSGTRLTVLG	binds
